Target: Sodium- and chloride-dependent glycine transporter 2 (Homo sapiens)
Sequence (Q9Y345 whole entry): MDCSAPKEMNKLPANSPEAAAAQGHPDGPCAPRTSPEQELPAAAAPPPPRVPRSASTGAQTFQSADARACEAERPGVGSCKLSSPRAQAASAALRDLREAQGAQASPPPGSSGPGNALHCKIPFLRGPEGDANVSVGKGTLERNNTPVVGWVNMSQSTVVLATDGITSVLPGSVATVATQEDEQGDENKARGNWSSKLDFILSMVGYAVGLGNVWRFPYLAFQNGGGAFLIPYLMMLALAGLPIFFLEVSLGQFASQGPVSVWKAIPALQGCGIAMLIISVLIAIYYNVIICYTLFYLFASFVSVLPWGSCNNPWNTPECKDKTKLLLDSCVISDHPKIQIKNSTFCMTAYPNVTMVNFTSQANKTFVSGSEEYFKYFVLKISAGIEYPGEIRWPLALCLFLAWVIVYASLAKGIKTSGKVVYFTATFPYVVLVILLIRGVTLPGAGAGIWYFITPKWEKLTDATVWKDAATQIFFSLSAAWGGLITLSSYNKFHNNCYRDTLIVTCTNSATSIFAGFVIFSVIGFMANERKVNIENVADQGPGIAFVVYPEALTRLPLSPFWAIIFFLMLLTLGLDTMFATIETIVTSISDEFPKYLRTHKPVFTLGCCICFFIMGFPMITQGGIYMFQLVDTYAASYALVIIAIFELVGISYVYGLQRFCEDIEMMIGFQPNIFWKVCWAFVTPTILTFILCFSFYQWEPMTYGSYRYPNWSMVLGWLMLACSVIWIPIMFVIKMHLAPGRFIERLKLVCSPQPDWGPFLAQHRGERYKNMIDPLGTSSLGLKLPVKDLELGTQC
Assay: Inhibition of human glycine transporter-2 expressed in HEK293 cells assessed as reduction in [14C]glycine uptake preincubated for 10 mins followed by [14C]glycine addition measured after 3 hrs by scintillation proximity assay
recordedMetric: IC50

[[record]]
compound = "CC(NC(=O)c1ccc(C(F)(F)F)cc1Cl)C1(N2CCN(S(=O)(=O)c3cn(C)nn3)CC2)CCC(F)(F)CC1 (stereo unspecified)"
measuredresult = "> 75 µM"

